system: A549-mRuby cells; assay: Drug screening: effect on cell growth (cell number day 4 / day 0); conditions: 10 μM drug, repeat #2
Where a name gives a salt, the structure may show the parent alone.
Outcome Measure: Growth_2: number of cells at day 4 divided by number of cells at day 0
Just the number.

Reference set (8 entries):
CCC(=O)O[C@H]1[C@H](O[C@@H]2[C@@H](C)[C@H](O[C@H]3C[C@@](C)(OC)[C@@H](O)[C@H](C)O3)[C@@H](C)C(=O)O[C@H](CC)[C@@](C)(O)[C@H](O)[C@@H](C)C(=O)[C@H](C)C[C@@]2(C)O)O[C@H](C)C[C@@H]1N(C)C [Erythromycin estolate] | 4.8
N=C(N)N/N=C/c1c(Cl)cccc1Cl [Guanabenz Acetate] | 4.4
COc1cccc(CCc2ccccc2OCC(CN(C)C)OC(=O)CCC(=O)O)c1 (stereo not shown) [Sarpogrelate hydrochloride] | 5.4
CN1CCCCC1CCN1c2ccccc2Sc2ccc([S+](C)[O-])cc21 (stereo not shown) [Mesoridazine Besylate] | 4.7
COc1cc2nc(N3CCN(C(=O)C4COc5ccccc5O4)CC3)nc(N)c2cc1OC (stereo not shown) [Doxazosin Mesylate] | 4.9
COc1cc(N)c(Cl)cc1C(=O)NC1CCN(CCCOc2ccc(F)cc2)CC1OC (stereo not shown) [Cisapride] | 4.5
CCCC1O[C@@H]2C[C@H]3[C@@H]4CCC5=CC(=O)C=C[C@]5(C)[C@H]4[C@@H](O)C[C@]3(C)[C@]2(C(=O)CO)O1 (stereo partly shown) [Budesonide] | 4.0
COCCCC/C(=N\OCCN)c1ccc(C(F)(F)F)cc1 [Fluvoxamine maleate] | 4.5

Field: next compound
Measured Growth_2: number of cells at day 4 divided by number of cells at day 0, CCCCOC(=O)c1ccc(N)cc1 : 4.7
